Item-by-item account of EC50
Test system: influenza A/WSN/1933 (H1N1)
Experiment: CPE assay at different multiplicities of infection (Example 94)
Format: cell-based, influenza A virus
Study Conditions: MOI 0.01; read-out: EC50 H1N1 A/WSN/1933 (CPE in MDCK cells)
// return numeric value only (unit: nM, not printed)

CC(=O)N[C@H]1[C@H]([C@H](O)[C@H](O)CO)OC(C(=O)O)=C[C@@H]1N=C(N)N; 938

Please turn your attention to the following entry.
Request: Test system influenza A/WSN/1933 (H1N1); read-out EC50; what value for CCOC(=O)C1=C[C@@H](OC(CC)CC)[C@H](NC(C)=O)[C@@H](N)C1 ?
Response: 1900

====

Test system: INFV A (A/CA/09 H1N1)
Type: cell-based, influenza A virus
Attribute Measured: pEC50
Please keep in mind that pEC50 is minus log10 of the molar concentration; only the number is needed.

Request: Param item = CC(=O)N[C@H]1[C@H]([C@H](O)[C@H](O)CO)OC(C(=O)O)=C[C@@H]1N=C(N)N ; retrieve measured pEC50.
Response: 6.58

====

Test system: MDCK cells
Study Conditions: four days post treatment, dilutions starting at 10 μM
Attribute Measured: CC50

Request: Param item = CC(=O)N[C@H]1[C@H]([C@H](O)[C@H](O)CO)OC(C(=O)O)=C[C@@H]1N=C(N)N ; retrieve measured CC50.
Response: > 10 µM

The reported measurements were obtained from patent US12569565B2.
